# Condition description: in ethyl acetate, 283.15 K
Outcome measure: solubility (mole fraction)

• COc1cc(C(=O)O)cc(OC)c1O = 0.0007

###

# Condition description: in n-hexanol, 313.15 K
Outcome measure: solubility (mole fraction)

• COc1cc(C(=O)O)cc(OC)c1O = 0.00702

###

# Condition description: in n-hexanol, 303.15 K
Outcome measure: solubility (mole fraction)

- COc1cc(C(=O)O)cc(OC)c1O: 0.0048

###

# Condition description: in methanol, 283.15 K
Outcome measure: solubility (mole fraction)

* COc1cc(C(=O)O)cc(OC)c1O | 0.0137

###

# Condition description: in ethyl acetate, 318.15 K
Outcome measure: solubility (mole fraction)

• COc1cc(C(=O)O)cc(OC)c1O = 0.0026
